Assay: Inhibition of yeast isomaltase alpha-glucosidase assessed as glucose release by Glucose B-test
endpoint: pIC50
Please treat pIC50 as minus the base-10 logarithm of the molar concentration.

OCCN1[C@H](CO)[C@@H](O)[C@H](O)[C@H]1CO : 3.62

Exam item: I have this compound here, "OC[C@H]1NC[C@H](O)[C@@H](O)[C@@H]1O" , and I need its recorded pIC50.
Marked response: 4.38

Exam item: I have this compound here, "OC[C@H]1NC[C@@H](O)[C@@H]1O" , and I need its recorded pIC50.
Marked response: 6.96

Exam item: I have this compound here, "OCCN1C[C@@H](O)[C@H](O)[C@H]1CO" , and I need its recorded pIC50.
Marked response: 4.92
